These entries and their values trace back to the supplement of paper PMC10567573.

# assay explanation: protein stability index of a GFP-peptide fusion (GPS, HEK-293T) (PSI 1-6); higher = more stable;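 note: 24-mer peptide tiles fused after GFP, lentivirally expressed, FACS-sorted into six equal bins by GFP/DsRed ratio, decoded by Illumina sequencing, PSI is the read-weighted mean bin number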
# particulars: treatment: DMSO; c terminus: a fixed tail appended
quantity: protein stability index
Hey, just send me the number, nothing else.

Worked cases, protein stability index given:
seq text	protein stability index
VPIKPPCIPNGKENFSGGTSLWQN [CAMK2D]	2.65
GSSGASDQDTLAPLPHPGAAPWPM [DVL3]	4.2
DQVPSMQDGSESFFFRHGHRGLLT [SPAG8]	3.39
CRKFPRDMKAMSPENQEYFEKHRW [RHOBTB2]	3.22
LIPLANTGIVNHTHSRMGSIMSTG [CARM1]	2.59

Identify protein stability index associated with the sequence ILISFTCRFLLNSRVTDAAFNFLL [TMEM120A]
2.9

Identify protein stability index associated with the sequence QMASQSSASHYKLQVIKALKSSGL [M1AP]
2.82

Identify protein stability index associated with the sequence SILRELDTSMDGTEPPQNPVTPLG [SERTAD3]
4.35

Identify protein stability index associated with the sequence QVQCHSYTGYCWCVTPNGRPISGT [SMOC2]
2.08

Identify protein stability index associated with the sequence LRPQRTKQYVLLSILLCLLASGLV [TMEM106C]
3.11

----------
# assay explanation: protein stability index of a GFP-peptide fusion (GPS, HEK-293T) (PSI 1-6); higher = more stable
# particulars: treatment: DMSO; c terminus: a fixed tail appended
# protein stability index per entry
Hey, just send me the number, nothing else.

seq text	protein stability index
GDETAHRIDSQFLIGDTLLVAPVL [MYORG]	2.94

Identify protein stability index associated with the sequence DRKSVKFVETRLRDLPDTPRRFTF [TRIM39]
2.98

Identify protein stability index associated with the sequence DGTFSPVTLALFFVLYFLLACWTY [CLCN6]
3.07

Identify protein stability index associated with the sequence TEQALRLSVEADINGLRRVLDELT [KRT17]
3.07

Identify protein stability index associated with the sequence LASTSKPVVKLLHNRSNNKYSYTS [KCTD13]
3.08

----------
# assay explanation: protein stability index of a GFP-peptide fusion (GPS, HEK-293T) (PSI 1-6); higher = more stable
# particulars: treatment: DMSO; c terminus: a fixed tail appended
quantity: protein stability index
Hey, just send me the number, nothing else.

Worked cases, protein stability index given:
seq text	protein stability index
FTRNEFNLESKSTIGVEFATRSIQ [RAB11A]	2.97
AIGALLVCYHYYADWFMSLGVGLL [TMEM40]	3.09
AERLFENQLVGPESIAHIGDVMFT [APMAP]	2.99
KADLEVSNRHGHTCLMISCYKGHK [FEM1C]	3.03
QMELLLVNKLKWNLAAMTPHDFIE [CCND1]	2.91

Moving on to another sequence below.
Identify protein stability index associated with the sequence LSLRQTGSPGMIYSTRYGSPKRQL [KCNAB2]
2.98

----------
# assay explanation: protein stability index of a GFP-peptide fusion (GPS, HEK-293T) (PSI 1-6); higher = more stable
# particulars: treatment: DMSO; c terminus: a fixed tail appended
Class Yes: protein stability index at least 4. Class No: protein stability index below 4.

seq text	qualitative label
PVIIAAVGTRQNEELPCTCPLCTS [RHOBTB3]	No
AIETAMEDLKGHVAETSGETIQGF [TPRG1]	Yes
SRDGMNIVLNKINQILMEKYLKLQ [INTS3]	No

Can TKFEVRLLRDPADASEAHESSSRG [CHGB] be said to have protein stability index at or above 4?
Yes

Can SALGPNVTKITLESFLAWKKRKRQ [ZC3H15] be said to have protein stability index at or above 4?
No

Can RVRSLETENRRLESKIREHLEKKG [KRT18] be said to have protein stability index at or above 4?
Yes

----------
# assay explanation: protein stability index of a GFP-peptide fusion (GPS, HEK-293T) (PSI 1-6); higher = more stable
# particulars: treatment: DMSO; c terminus: a fixed tail appended
quantity: protein stability index
Hey, just send me the number, nothing else.

Worked cases, protein stability index given:
seq text	protein stability index
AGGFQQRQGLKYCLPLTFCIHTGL [FBXO3]	2.58
LHIFQLNEDGPSSENLEEETENII [TRIP13]	3.96

Moving on to another sequence below.
Identify protein stability index associated with the sequence STKTPAPCSEFMEPSSDPSLLGEP [SPAG8]
5.24

----------
# assay explanation: protein stability index of a GFP-peptide fusion (GPS, HEK-293T) (PSI 1-6); higher = more stable
# particulars: treatment: MLN4924 1 uM, 8 h; c terminus: native
Class 1: protein stability index at least 4. Class -1: protein stability index below 4.

Can TSSKPTALPSASSAYFPGQLPNS [SASS6] be said to have protein stability index at or above 4?
1

----------
# assay explanation: protein stability index of a GFP-peptide fusion (GPS, HEK-293T) (PSI 1-6); higher = more stable
# particulars: treatment: DMSO; c terminus: a fixed tail appended
# protein stability index per entry
Hey, just send me the number, nothing else.

seq text	assay value
VSIMYLVLVLAVQVHAWQLYYSKK [JAGN1]	2.98

Identify protein stability index associated with the sequence LCQCHEGFALNPDKKTCTKIDYCA [MATN2]
2.95

Identify protein stability index associated with the sequence PCLDQTRVKLTKRSGHTQTDYINA [PTPN9]
3.99

Identify protein stability index associated with the sequence EREEEDDALDSEGRDSEGPAEGEG [KCNG1]
5.55

Identify protein stability index associated with the sequence STPLMEAAQEGHLELVKYLLAAGA [ANKRD17]
2.22

Identify protein stability index associated with the sequence PQELLEWELVVLGKLKWNLAAVTP [CCND2]
2.47

----------
# assay explanation: protein stability index of a GFP-peptide fusion (GPS, HEK-293T) (PSI 1-6); higher = more stable
# particulars: treatment: MLN4924 1 uM, 8 h; c terminus: a fixed tail appended
Class true: protein stability index at least 3. Class false: protein stability index below 3.

These recorded examples may help you get a feel for the data.
seq text	qualitative label
EKRGCPRTALEYCKLILSLEPDED [TCF25]	true
GEKPFECNECGKAFRWGAHLVQHQ [ZNF232]	false
YSFGSGGGYGSSFGGVDGLLAGGE [KRT17]	false
LEELIDMAVLEEIQQELIKQEQSI [RPAIN]	true

Next sequence, please.
Can DEKQQEANETLAEMEEELRYAPLS [VTI1B] be said to have protein stability index at or above 3?
true

----------
# assay explanation: protein stability index of a GFP-peptide fusion (GPS, HEK-293T) (PSI 1-6); higher = more stable
# particulars: treatment: MLN4924 1 uM, 8 h; c terminus: a fixed tail appended
# protein stability index per entry
Hey, just send me the number, nothing else.

seq text	assay value
PDLVKGPWTKEEDQKVIELVKKYG [MYBL2]	3.99

Identify protein stability index associated with the sequence GNAHLGYSLVTHIPAGARDIQIVE [ADAMTSL2]
3.24

----------
# assay explanation: protein stability index of a GFP-peptide fusion (GPS, HEK-293T) (PSI 1-6); higher = more stable
# particulars: treatment: MLN4924 1 uM, 8 h; c terminus: a fixed tail appended
# protein stability index per entry

seq text	protein stability index
SVSRPEGRSWPSAPDDSKAQAHRI [PDLIM4]	4.95
DSSEKELEPEAAEEALENGPKESL [ACBD3]	5.55
GVDPQQKMELGIDLLAYGAKAELP [MYOZ1]	4.05

Moving on to another sequence below.
Identify protein stability index associated with the sequence QAFQLPKLGALLSRCRKLVEYFQQ [ZBED1]
2.43

----------
# assay explanation: protein stability index of a GFP-peptide fusion (GPS, HEK-293T) (PSI 1-6); higher = more stable
# particulars: treatment: MLN4924 1 uM, 8 h; c terminus: a fixed tail appended
Class Condition met: protein stability index at least 4. Class Condition not met: protein stability index below 4.

These recorded examples may help you get a feel for the data.
seq text	qualitative label
PPARPRPRSPECRMIPGQPPASAR [IRX6]	Condition met
NAYKDLAWKHGNIHLSAPCIYSEV [PCMTD1]	Condition not met
TSSSSSSSRQTRPILKEQSSSSFS [KRT16]	Condition met
PGLPGSTGNPKSEEPEVPDQEGLQ [SPNS1]	Condition met
GLNDALDNLRKVVPCYSKTQKLSK [NEUROD6]	Condition not met

Can PPPVESELALFQMSVLWLEHDRET [KLHL14] be said to have protein stability index at or above 4?
Condition not met

Can YVSLGRLGAAKGALHPGCFAPLHP [CEBPB] be said to have protein stability index at or above 4?
Condition not met

Can DAGSPYLIGLISDRLRRNWPPSFL [SPNS1] be said to have protein stability index at or above 4?
Condition not met
